Below, each entry is listed with its recorded GI50.
Test system: BT-549 breast
Test protocol: NCI tumour cell line growth inhibition, 48 h

// known answers, use as guide
CC/C(=C(/c1ccc(OCCN(C)C)cc1)c1ccc(OC(=O)CCCCCCCCC(=O)c2c(C)[nH]c(/C=C3\N=C(c4ccc[nH]4)C=C3OC)c2C)cc1)c1ccccc1 = 5210 nM
C[C@]12CC[C@@H]3c4ccc(OC(=O)N(CCCl)CCCl)cc4CC[C@H]3[C@@H]1CC[C@@H]2OP(=O)(O)O = 27100 nM
CCN(CC)CC(O)c1cc(-c2ccc(Cl)cc2)nc2c(C)c(Cl)ccc12 (configuration not stated) = 2270 nM
CCC(C)C1NC(=O)C(NC(=O)C(CC(C)C)N(C)C(=O)[C@@H]2CC(O)CN2C(=O)[C@H](C)O)C(C)OC(=O)[C@H](Cc2ccc(OC)cc2)N(C)C(=O)[C@@H]2CCCN2C(=O)[C@H](CC(C)C)NC(=O)C(C)C(=O)[C@H](C(C)C)OC(=O)CC1O (some centres not stated) = 25.9 nM
CCOc1ccc2c(c1)C(=O)c1c-2n(CCCN=[N+]=[N-])c(=O)c2cc([N+](=O)[O-])ccc12 = 13100 nM

Here is another molecule to look at.
q: Look up GI50: "Cc1cc(-c2cc(OC(=O)c3ccccc3)ccc2Cl)cc2nnc(Nc3ccc(OCCN4CCCC4)cc3)nc12"
a: 2670 nM

###

Tested on: ACHN renal
Test protocol: NCI tumour cell line growth inhibition, 48 h; in the data active means GI50 below about 0.43 µM; inactive means the rest
Give one outcome, nothing more. List: active, inactive

Some solved cases for reference:
CCN(CC)CC(O)c1cc(-c2ccc(Cl)cc2)nc2c(C)c(Cl)ccc12 (stereo not given) = inactive
CN(C)c1ccc(/C=c2/c3cc(O)ccc3n3c2cc(-c2ccccc2)[n+]3C)cc1 = inactive
O=C(N/N=C/c1ccncc1)c1ccc(F)cc1 = inactive
O=C1c2ccc3c4c(ccc(c24)C(=O)N1CCNCc1ccccc1)C(=O)N(CCNCc1ccccc1)C3=O = inactive
COc1cc(N2CCC(N)CC2)ccc1Nc1ncc(Cl)c(-c2c[nH]c3ccccc23)n1 = active
CC[C@@H](C)/C=C(C)/C=C/C(=O)c1c(O)c(-c2ccc(O)cc2)cn(OC2CC(=O)CCC(C)OC(=O)CC2O)c1=O (stereo not given in full) = active
CCCCCCCCCCCCCCCCCC[S+](C)CC (stereo not given) = inactive
COc1ccc(/C=C/C(=O)/C=C(O)/C=C/c2ccc(OC)c(OC)c2)cc1OC = inactive

q: For "CN(C)CCCCNc1ccc(NCCCCN(C)C)c2c1C(=O)c1c(O)ccc(O)c1C2=O" , which call appears in the assay record?
a: inactive

q: Call for entry "Cn1c(=O)c(Oc2ccc(F)cc2F)cc2cnc(NCC(C)(C)O)nc21" :
a: inactive

###

Tested on: KM20L2 colon
Test protocol: NCI tumour cell line growth inhibition, 48 h
Measured TGI, listed per entry.

// known answers, use as guide
NC(CSCSCC(N)C(=O)O)C(=O)O (stereo unspecified) = > 225 µM
N#CCCN(c1ccc(C=O)cc1)S(=O)(=O)c1ccccc1 = > 100 µM
O=c1oc2ccccc2n1P(=O)(Oc1ccc(Cl)cc1)n1c(=O)oc2ccccc21 = > 100 µM
CSC1=Nc2ccccc2N=C(c2ccccc2)C1 = > 100 µM
Cc1cc(C)nc(NS(=O)(=O)c2ccc(NC(=O)COC(=O)c3cccc4c(=O)c5ccccc5[nH]c34)cc2)n1 = > 100 µM

q: Name the recorded TGI for "N#C/C(=C\c1ccc[nH]1)C(=O)c1ccccc1" .
a: > 100 µM
